assay system: human NaV 1.8 channels stably expressed in HEK 293 cells (Homo sapiens (Human))
Sequence (Q9Y5Y9 whole entry): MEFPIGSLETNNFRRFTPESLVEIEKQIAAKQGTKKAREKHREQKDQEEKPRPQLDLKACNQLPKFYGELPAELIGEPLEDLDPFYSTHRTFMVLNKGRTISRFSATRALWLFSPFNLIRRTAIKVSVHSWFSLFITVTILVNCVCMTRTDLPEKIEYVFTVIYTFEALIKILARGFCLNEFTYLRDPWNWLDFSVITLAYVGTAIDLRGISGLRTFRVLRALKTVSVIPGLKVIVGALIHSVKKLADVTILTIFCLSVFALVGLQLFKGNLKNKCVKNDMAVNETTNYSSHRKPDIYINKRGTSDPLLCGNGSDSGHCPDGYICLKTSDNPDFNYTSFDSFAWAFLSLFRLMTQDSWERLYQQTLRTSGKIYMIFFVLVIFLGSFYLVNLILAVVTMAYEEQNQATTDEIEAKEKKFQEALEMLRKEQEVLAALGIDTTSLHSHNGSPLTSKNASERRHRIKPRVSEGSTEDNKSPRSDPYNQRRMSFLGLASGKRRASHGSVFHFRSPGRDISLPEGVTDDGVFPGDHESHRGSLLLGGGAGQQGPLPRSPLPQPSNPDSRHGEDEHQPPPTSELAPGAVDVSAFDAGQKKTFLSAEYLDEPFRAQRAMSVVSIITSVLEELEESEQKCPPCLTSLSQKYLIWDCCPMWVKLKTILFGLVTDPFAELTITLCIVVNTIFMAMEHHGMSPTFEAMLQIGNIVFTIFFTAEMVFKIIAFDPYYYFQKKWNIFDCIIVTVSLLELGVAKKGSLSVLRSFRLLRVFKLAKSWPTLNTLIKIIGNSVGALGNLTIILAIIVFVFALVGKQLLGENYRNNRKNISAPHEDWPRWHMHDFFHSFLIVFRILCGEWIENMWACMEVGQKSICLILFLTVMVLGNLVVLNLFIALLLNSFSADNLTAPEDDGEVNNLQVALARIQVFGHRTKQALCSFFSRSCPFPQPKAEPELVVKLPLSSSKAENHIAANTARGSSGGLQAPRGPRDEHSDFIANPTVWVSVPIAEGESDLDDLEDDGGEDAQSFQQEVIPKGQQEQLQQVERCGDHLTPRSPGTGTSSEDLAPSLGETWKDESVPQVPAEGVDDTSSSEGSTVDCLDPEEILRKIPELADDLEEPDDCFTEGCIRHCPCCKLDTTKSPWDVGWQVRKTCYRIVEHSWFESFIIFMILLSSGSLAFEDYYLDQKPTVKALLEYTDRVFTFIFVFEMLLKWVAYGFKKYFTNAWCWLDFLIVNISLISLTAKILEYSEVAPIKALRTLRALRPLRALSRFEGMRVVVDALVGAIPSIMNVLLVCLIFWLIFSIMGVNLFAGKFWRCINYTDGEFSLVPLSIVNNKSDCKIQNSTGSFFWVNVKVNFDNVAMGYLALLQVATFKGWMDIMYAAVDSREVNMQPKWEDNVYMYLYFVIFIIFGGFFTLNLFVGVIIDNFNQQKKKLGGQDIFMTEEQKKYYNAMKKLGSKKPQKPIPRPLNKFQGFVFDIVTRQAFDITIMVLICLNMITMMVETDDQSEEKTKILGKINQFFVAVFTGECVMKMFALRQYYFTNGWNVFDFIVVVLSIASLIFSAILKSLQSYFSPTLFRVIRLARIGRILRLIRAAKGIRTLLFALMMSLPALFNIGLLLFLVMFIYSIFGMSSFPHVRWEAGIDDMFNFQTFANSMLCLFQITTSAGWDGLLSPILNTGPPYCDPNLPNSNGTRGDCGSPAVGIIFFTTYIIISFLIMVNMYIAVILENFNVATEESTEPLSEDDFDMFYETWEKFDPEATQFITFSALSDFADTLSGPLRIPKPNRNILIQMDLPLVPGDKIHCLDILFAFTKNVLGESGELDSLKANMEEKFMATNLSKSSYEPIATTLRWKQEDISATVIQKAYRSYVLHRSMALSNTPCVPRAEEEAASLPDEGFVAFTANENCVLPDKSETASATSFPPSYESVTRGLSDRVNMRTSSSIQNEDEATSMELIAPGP
measurement protocol: Nav1.8 Qube automated patch-clamp assay
Type: cell-based
run conditions: human NaV1.8 in HEK 293 cells, whole-cell voltage clamp, room temperature; read-out: IC50 values (nM) for Examples in the Nav1.8 Qube Assay
Method: Compounds were tested on human NaV 1.8 and NaV1.5 channels stably expressed in human embryo kidney (HEK) 293 cells. […] For all Qube® experiments offline analysis was used to determine percent inhibition as a function of drug concentration. IC50 values were determined by fitting to the Hill equation.

>  <compound>
C[C@@H]1C(=O)NCCN1C(=O)NC(c1ccc(OCC(F)(F)F)nc1)c1ccc(F)c(Cl)c1 (single isomer, unassigned) [Example 3B]

>  <IC50 [nM]>
21.9

$$$$
>  <compound>
C[C@@H]1C(=O)NCCN1C(=O)NC(c1cnc(C(F)(F)F)c(F)c1)c1ccc(F)c(Cl)c1F (single isomer, unassigned)

>  <IC50 [nM]>
2.12

$$$$
>  <compound>
C[C@@H]1C(=O)NCCN1C(=O)NC(c1cnc(OCC(F)(F)F)s1)c1ccc(F)c(Cl)c1F (single isomer, unassigned) [Example 13A]

>  <IC50 [nM]>
2.13

$$$$
>  <compound>
C[C@@H]1C(=O)NCCN1C(=O)NC(c1ccc(Cl)cc1)c1ccc(C(F)(F)F)nc1 (single isomer, unassigned) [Example 17A]

>  <IC50 [nM]>
101

$$$$
>  <compound>
C[C@@H]1C(=O)NCCN1C(=O)NC(c1ccc(OCC(F)(F)F)cc1)c1ccc(F)c(C(F)(F)F)n1 (single isomer, unassigned) [Example 57B]

>  <IC50 [nM]>
125

$$$$
>  <compound>
C[C@@H]1C(=O)NCCN1C(=O)NC(c1ccc(F)c(Cl)c1)c1cccc(C(F)(F)F)n1 (single isomer, unassigned)

>  <IC50 [nM]>
8.55

$$$$

Ref: patent US20240246932A1
